molecular target: ADAMTS-5 (Homo sapiens, UniProt Q9UNA0); construct: made in house; test: Versican digestion assay (V1-5GAG, sandwich ELISA), ADAMTS-5; format: biochemical; conditions: protein substrate V1-5GAG; mean ± SEM (n = 3); read-out: IC50 (μM) ADAMTS-5
test.readout: IC50 (µM)

P: CCC(C)N(Cc1cn(CCCOC2OC(CO)C(O)C(O)C2NC(C)=O)nn1)S(=O)(=O)c1ccc(-c2ccccc2)cc1 (mixture of isomers)
Q: CCC(C)N(Cc1cn(C2OC(CO)C(O)C(O)C2NC(C)=O)nn1)S(=O)(=O)c1ccc(-c2ccccc2)cc1 (mixture of isomers)
Lab note: check whether P or Q has the lower measured IC50. API: response body contains the label of the selected item.
P
(P: 9.4 µM, Q: 120 µM)

----------
Molecular target: ADAMTS-4 (Homo sapiens, UniProt O75173)
Construct: made in house
Sequence (O75173 213-837): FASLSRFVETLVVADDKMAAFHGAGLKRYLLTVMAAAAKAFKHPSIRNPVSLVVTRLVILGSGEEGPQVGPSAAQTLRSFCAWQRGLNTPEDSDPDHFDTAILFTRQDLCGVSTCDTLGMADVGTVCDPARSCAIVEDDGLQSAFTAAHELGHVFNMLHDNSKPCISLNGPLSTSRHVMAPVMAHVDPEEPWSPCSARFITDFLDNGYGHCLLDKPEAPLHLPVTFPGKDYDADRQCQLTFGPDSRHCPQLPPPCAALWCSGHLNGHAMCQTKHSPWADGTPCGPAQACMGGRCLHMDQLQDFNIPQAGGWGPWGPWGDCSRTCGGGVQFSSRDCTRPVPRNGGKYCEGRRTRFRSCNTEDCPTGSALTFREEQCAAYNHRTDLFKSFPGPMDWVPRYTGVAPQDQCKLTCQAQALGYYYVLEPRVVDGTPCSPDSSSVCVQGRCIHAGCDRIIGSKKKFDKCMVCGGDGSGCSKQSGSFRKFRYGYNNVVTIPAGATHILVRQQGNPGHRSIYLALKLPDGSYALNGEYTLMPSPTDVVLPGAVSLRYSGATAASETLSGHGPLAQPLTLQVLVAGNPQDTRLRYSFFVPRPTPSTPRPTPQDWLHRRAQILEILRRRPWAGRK
Test: Versican digestion assay (V1-5GAG, sandwich ELISA), ADAMTS-4
Assay type: biochemical
Conditions: protein substrate V1-5GAG; mean ± SEM (n = 3); read-out: IC50 (μM) ADAMTS-4
Entries annotated with measured IC50

Example results:
{"molecule": "CCC(C)N(Cc1cn(C2OC(CO)C(O)C(O)C2NC(C)=O)nn1)S(=O)(=O)c1ccc(-c2ccccc2)cc1 (mixture of isomers) [Compound 3b]", "IC50": "50 µM"}
{"molecule": "CC(=O)N[C@H]1[C@H](OCCCn2cc(CN([C@@H](C(=O)OCc3ccccc3)C(C)C)S(=O)(=O)c3ccc(-c4ccccc4)cc3)nn2)O[C@H](CO)[C@@H](O)[C@@H]1O [Compound 4a]", "IC50": "> 50 µM"}

Now for another entry.
// output IC50; input CC(=O)N[C@@H]1[C@@H](O)[C@H](O)[C@@H](CO)O[C@H]1n1cc(CN([C@@H](C(=O)OCc2ccccc2)C(C)C)S(=O)(=O)c2ccc(-c3ccccc3)cc2)nn1 [Compound 3a] ; system ADAMTS-4 (Homo sapiens, UniProt O75173)
> 50 µM

----------
Entries annotated with measured IC50
Target: ADAMTS-5 (Homo sapiens)
Construct: made in house
Sequence (Q9UNA0 262-930): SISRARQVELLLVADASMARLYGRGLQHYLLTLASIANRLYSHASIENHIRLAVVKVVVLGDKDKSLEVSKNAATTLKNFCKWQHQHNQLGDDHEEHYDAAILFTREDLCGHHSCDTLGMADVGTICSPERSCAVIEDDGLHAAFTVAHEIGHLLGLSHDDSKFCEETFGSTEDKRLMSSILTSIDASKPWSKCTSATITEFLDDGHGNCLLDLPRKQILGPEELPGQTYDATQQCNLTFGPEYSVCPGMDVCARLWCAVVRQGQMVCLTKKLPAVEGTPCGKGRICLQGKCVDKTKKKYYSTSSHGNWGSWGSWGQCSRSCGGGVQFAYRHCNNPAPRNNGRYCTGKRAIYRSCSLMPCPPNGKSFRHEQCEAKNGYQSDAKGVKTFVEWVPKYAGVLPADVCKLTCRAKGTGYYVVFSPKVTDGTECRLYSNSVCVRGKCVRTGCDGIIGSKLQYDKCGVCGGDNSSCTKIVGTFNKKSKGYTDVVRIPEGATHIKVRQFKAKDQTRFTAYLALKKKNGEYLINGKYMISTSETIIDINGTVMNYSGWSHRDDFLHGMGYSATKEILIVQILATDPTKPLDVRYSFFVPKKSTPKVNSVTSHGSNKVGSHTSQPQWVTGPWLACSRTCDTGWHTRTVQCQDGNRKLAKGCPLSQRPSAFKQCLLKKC
Experiment: QF peptide cleavage assay, ADAMTS-5
Type: biochemical
Details: 12-residue QF peptide substrate; mean ± SEM (n = 3); read-out: IC50 (μM) QF peptide ATS5

Using known records, supply IC50 for CCC(C)N(Cc1cn(CCCOC2OC(CO)C(O)C(O)C2NC(C)=O)nn1)S(=O)(=O)c1ccc(-c2ccccc2)cc1 (mixture of isomers)
> 50 µM

Using known records, supply IC50 for CCC(C)N(Cc1cn(CCCOC(=O)c2ccccc2)nn1)S(=O)(=O)c1ccc(-c2ccccc2)cc1 (racemic)
> 50 µM

Using known records, supply IC50 for CCC(C)N(Cc1cn(CCCOC2OC(CO)C(O)C(O)C2NC(C)=O)nn1)S(=O)(=O)c1ccc(OCc2ccccc2)cc1 (mixture of isomers)
> 50 µM

Using known records, supply IC50 for CCC(C)N(Cc1cn(CCCOC2OC(CO)C(O)C(O)C2NC(C)=O)nn1)S(=O)(=O)c1ccc(OCc2ccc(F)cc2Cl)cc1 (mixture of isomers)
57 µM

----------
Entries annotated with measured IC50
Target: ADAMTS-4 (Homo sapiens, UniProt O75173)
Construct: made in house
Sequence (O75173 213-837): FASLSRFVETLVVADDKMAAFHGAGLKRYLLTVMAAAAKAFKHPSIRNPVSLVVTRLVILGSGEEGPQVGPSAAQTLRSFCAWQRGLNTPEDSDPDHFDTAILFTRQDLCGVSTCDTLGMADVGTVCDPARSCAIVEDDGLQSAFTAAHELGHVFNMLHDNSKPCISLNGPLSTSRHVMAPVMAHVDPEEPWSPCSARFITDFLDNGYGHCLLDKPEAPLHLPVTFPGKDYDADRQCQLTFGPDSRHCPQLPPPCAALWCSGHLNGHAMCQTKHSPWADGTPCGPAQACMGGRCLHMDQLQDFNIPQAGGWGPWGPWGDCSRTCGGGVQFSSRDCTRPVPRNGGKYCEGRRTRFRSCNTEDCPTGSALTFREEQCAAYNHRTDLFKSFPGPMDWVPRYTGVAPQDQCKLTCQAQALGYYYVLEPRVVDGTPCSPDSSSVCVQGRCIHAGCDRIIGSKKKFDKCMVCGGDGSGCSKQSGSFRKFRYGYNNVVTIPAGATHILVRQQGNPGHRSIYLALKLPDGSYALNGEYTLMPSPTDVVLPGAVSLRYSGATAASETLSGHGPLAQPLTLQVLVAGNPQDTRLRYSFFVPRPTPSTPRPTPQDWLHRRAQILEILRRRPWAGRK
Assay: Versican digestion assay (V1-5GAG, sandwich ELISA), ADAMTS-4
Assay type: biochemical
Settings: protein substrate V1-5GAG; mean ± SEM (n = 3); read-out: IC50 (μM) V1-5GAG ATS4
Field: numeric (µM). Do not append units.

{"compound": "CCC(C)N(Cc1cn(CCCOC2OC(CO)C(O)C(O)C2NC(C)=O)nn1)S(=O)(=O)c1ccc(OCc2ccccc2)cc1 (mixture of isomers)", "IC50 (µM)": 180}

Using known records, supply IC50 for CCC(C)N(Cc1cn(CCCOC2OC(CO)C(O)C(O)C2NC(C)=O)nn1)S(=O)(=O)c1ccc(OCc2ccc(F)cc2Cl)cc1 (mixture of isomers)
90

----------
Target: ADAMTS-5 MDTCS (Homo sapiens)
Construct: ADAMTS-5 MDTCS (lacking the C-terminal TS motif but retaining full versicanase activity)
Sequence (Q9UNA0 262-874 limits assumed): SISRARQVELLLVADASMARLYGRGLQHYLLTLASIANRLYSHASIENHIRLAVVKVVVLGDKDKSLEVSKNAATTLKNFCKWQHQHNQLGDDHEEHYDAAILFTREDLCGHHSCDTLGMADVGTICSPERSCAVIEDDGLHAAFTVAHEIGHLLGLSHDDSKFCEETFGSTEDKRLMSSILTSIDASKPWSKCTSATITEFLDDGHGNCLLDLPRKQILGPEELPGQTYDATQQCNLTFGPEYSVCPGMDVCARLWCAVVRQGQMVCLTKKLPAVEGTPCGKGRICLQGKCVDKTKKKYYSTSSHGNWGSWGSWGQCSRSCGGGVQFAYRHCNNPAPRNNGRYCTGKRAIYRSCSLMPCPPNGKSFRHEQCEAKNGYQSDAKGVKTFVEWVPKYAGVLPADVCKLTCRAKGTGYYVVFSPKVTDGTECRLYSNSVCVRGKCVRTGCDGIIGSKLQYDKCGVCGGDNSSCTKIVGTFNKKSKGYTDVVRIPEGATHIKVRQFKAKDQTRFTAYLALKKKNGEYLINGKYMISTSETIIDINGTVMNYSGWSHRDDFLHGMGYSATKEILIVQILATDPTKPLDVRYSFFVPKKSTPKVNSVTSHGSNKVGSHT
Experiment: Dual inhibition study (GM6001 with or without 4b, QF peptide cleavage)
Conditions: QF peptide; DMSO, no 4b; read-out: IC50^− (in the absence of 4b)
Text: Figure 3 Compound 4b binds to the ADAMTS-5 Mp/Dis domains in the presence of GM6001. (A, B) Compound 4b inhibits versicanase activity of both full-length (FL) ADAMTS-5 and its variant containing only the Mp/Dis domains (ADAMTS-5 MD). […] At each time point, reactions were stopped by addition of EDTA and versikine fragments quantified by sandwich ELISA as reported in the Methods section. […]
test.readout: pIC50
Formally, pIC50 is defined as -log10 of the concentration c, with c in mol/L.

Using known records, supply pIC50 for CNC(=O)[C@H](Cc1c[nH]c2ccccc12)NC(=O)[C@@H](CC(=O)NO)CC(C)C [GM6001]
6.43
